Experiment: reducers of endogenous Her2 protein level, primary screen, SKBR3 breast tumor cells, AlphaScreen, ATP viability (AID 461);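 for viability: percent of carrier control wells set as 100% viability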
Conditions: 18-24 h, measured here: SKBR3 viability, ATP luminescence, at 10 µM
The compounds listed here are annotated with their viability.
Provide the reading as a plain figure in %.

Which viability value belongs to `CC(=O)Nc1nc(-c2ccc(Cl)cc2)nc(C)c1C(C)=O` ?
96.5

Can you handle CC(=O)Nc1ccc(S(=O)(=O)Nc2nc3n(n2)C(c2ccccc2)CC(=O)N3)cc1 (stereo unspecified) next?
99.5

Can you handle `O=C(NCCc1ccccn1)c1ccc(COc2ccccc2)o1` next?
80

Can you handle `CCOC(=O)c1c(NC(=O)CSc2nnc(-c3ccc(OC)cc3)o2)sc2c1CCC2` next?
88

Can you handle CCOC(=O)C(NC(=O)OC(C)C)(Nc1nccs1)C(F)(F)F (stereo unspecified) next?
89.5

Can you handle O=C1CC(N2CCC(C(=O)N3CCCCC3)CC2)C(=O)N1 (stereo unspecified) next?
110

---

The compounds listed here are annotated with their viability.
Test: reversal of MRP1-mediated doxorubicin resistance, pilot screen, H69AR cells, doxorubicin co-treatment (AID 601)
Conditions: H69AR cells, CellTiter-Glo, 72 h; compound alone cytotoxicity; at 10 µM
Provide the reading as a plain figure in %.

COMPOUND	viability / %
COc1ccc(N(C(=O)c2ccco2)C(C(=O)NC2CCCC2)c2ccc(N(C)C)cc2)cc1OC (centres undefined)	90
CCOP(=O)(c1ccc(N(C)C)cc1)C(O)c1cc(OC)c(OC)c(OC)c1 (centres undefined)	87.4
CC(C)(C)C1CCc2[nH]nc(C(=O)O)c2C1 (centres undefined)	98
Cc1cnc(C(=O)OCC(=O)Nc2ccc(Cl)cc2Cl)cn1	103
Cn1c(=O)c2c(nc(SCC(=O)O)n2Cc2cccc(C(F)(F)F)c2)n(C)c1=O	95.6

Which viability value belongs to `COc1ccc(Cl)cc1S(=O)(=O)n1cnc2ccccc21` ?
33.7

---

Experiment: HUVEC growth inhibition – cell-based, human, primary screen (AID 575);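 note: 100% = median of untreated cell wells with 0.1% DMSO on each plate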
Conditions: HUVEC proliferation, CellTiter-Glo luminescence, 72 h; at 10 µM; stronger effect = lower value
Active and inactive are the calls of the source.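 Rule for the calls: active = viability at or below 30% in both replicate assays; inconclusive = viability at or below 30% in just one of the two assays; inactive = the rest.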
ATTRIBUTE_MEASURED: viability

COMPOUND	viability
COc1ccc(/C(O)=C2/C(=O)C(=O)N(CCCN(C)C)C2c2ccco2)cc1Cl (stereo unspecified)	120% (inactive)

Now look at this one.
Which viability value belongs to `COCCn1nnnc1CN(Cc1cccnc1)Cc1cc2cc(OC)ccc2[nH]c1=O` ?
98.6% (inactive)

---

Assay: reversal of MRP1-mediated doxorubicin resistance, pilot screen, H69AR cells, doxorubicin co-treatment (AID 601)
Conditions: H69AR cells + 2 uM doxorubicin, CellTiter-Glo, 72 h; at 10 µM; stronger effect = higher value
ATTRIBUTE_MEASURED: differential viability (reversal) (%)
Provide the reading as a plain figure in %.

COMPOUND	ATTRIBUTE_MEASURED	UNIT_NAME	VALUE_REPORTED
Cc1ccc2[nH]c(=O)c(CN(Cc3ccc4c(c3)OCO4)Cc3nnnn3Cc3ccco3)cc2c1	differential viability (reversal)	%	-3.68
Cc1ccc(S(=O)(=O)N(CCO)c2cc3c(s2)CCCC3)cc1	differential viability (reversal)	%	-3.64
CCn1c(COc2cccc3ccccc23)nnc1SCC(N)=O	differential viability (reversal)	%	13
CCOC(=O)CN1C(=O)C2(OCCCO2)c2ccccc21	differential viability (reversal)	%	11.1
N#Cc1ccc(COC(=O)Cn2nnc(-c3ccccc3)n2)cc1	differential viability (reversal)	%	6.57
CSc1ccccc1N=CC1=C(O)CC(C)(C)CC1=O	differential viability (reversal)	%	-0.87
O=C(O)C1CCCN1S(=O)(=O)c1ccc2ccccc2c1 (stereo unspecified)	differential viability (reversal)	%	-12
C=CCOc1nc(N2CCCC2)nc(N2CCCC2)n1	differential viability (reversal)	%	11.6
O=C(O)[C@@H]1CCCN1c1ncnc2sc3c(c12)CCC3	differential viability (reversal)	%	3.99
CCCN(CCC)C(=O)C1CCN(c2cc(C)nc3c(-c4ccc(OC)c(OC)c4)c(C)nn23)CC1	differential viability (reversal)	%	44

Now look at this one.
Which differential viability (reversal) value belongs to `CCOCC(=O)Nc1ccc(S(=O)(=O)N2CCOCC2)cc1` ?
6.46

---

The compounds listed here are annotated with their Her2 level.
Target: Receptor tyrosine-protein kinase erbB-2 (Homo sapiens) (UniProt P04626)
Sequence (P04626 whole entry, looked up): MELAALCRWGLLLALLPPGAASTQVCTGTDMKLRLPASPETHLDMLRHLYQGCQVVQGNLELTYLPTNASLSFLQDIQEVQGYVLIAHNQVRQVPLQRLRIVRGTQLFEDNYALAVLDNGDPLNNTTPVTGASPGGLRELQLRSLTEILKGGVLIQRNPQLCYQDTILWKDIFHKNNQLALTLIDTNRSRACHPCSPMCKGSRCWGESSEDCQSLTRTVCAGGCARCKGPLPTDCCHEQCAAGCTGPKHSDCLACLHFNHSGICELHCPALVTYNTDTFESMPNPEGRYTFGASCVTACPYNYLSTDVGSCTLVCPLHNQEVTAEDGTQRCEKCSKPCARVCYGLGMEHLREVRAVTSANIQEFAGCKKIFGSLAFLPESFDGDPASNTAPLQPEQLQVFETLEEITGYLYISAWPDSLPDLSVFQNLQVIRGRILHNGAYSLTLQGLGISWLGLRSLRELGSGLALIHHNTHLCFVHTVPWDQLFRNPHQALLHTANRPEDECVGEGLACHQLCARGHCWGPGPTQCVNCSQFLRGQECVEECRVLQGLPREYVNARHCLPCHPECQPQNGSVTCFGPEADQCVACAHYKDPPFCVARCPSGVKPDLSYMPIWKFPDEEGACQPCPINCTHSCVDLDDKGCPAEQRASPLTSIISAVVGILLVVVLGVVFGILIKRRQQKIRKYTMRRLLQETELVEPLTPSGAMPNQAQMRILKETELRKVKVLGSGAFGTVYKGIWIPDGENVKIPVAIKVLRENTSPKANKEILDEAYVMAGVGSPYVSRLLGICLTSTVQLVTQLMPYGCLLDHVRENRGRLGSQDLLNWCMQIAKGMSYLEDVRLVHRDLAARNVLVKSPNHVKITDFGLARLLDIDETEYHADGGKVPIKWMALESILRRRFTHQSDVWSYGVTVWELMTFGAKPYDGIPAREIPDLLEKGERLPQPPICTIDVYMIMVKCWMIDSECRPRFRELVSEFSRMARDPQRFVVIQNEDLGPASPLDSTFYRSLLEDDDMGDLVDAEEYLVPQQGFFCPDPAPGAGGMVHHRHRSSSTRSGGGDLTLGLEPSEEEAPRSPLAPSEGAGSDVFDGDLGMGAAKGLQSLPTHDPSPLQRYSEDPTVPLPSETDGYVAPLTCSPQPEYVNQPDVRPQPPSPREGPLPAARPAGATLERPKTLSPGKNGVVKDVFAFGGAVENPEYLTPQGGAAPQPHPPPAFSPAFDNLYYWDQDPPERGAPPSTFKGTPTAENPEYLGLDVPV
Test: reducers of endogenous Her2 protein level, primary screen, SKBR3 breast tumor cells, AlphaScreen, ATP viability (AID 461);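 for Her2 level: lower value means less Her2 protein in the cells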;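 for viability: percent of carrier control wells set as 100% viability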
Details: 18-24 h, at 10 µM, stronger effect = lower value
Calls of active or inactive are those of the source.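 How the source made its calls: active means Her2 level under about 52% in both replicate screens, with viability over 70% of control (limit read from the data); inconclusive means Her2 under the limit in one screen only, or viability under 70%; inactive means Her2 level above the set limit.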

COMPOUND	TARGET_UNDER_TEST	Her2 level
CCCN1C2=C(C(=O)CCC2)C(c2ccc(O)c(Br)c2)C2=C1CCCC2=O	Receptor tyrosine-protein kinase erbB-2 (Homo sapiens) (UniProt P04626)	85.5% (inactive)
COc1ccccc1NC(=O)CSC1CC(=O)N(c2ccc3c(c2)OCO3)C1=O (stereo not given)	Receptor tyrosine-protein kinase erbB-2 (Homo sapiens) (UniProt P04626)	82.5% (inactive)
Cc1c(Cl)cnc(NC(=O)COC(=O)C(NC(=O)c2ccco2)C(C)C)c1Cl (stereo not given)	Receptor tyrosine-protein kinase erbB-2 (Homo sapiens) (UniProt P04626)	85% (inactive)

Which Her2 level value belongs to `COc1ccc(N(CC(=O)NC2CCCC2)C(=O)Cn2nnc(-c3ccc(C)cc3)n2)cc1` ?
99.5% (inactive)

Can you handle `Cc1c(Br)c(C(F)(F)F)nn1CC(=O)NCCN1CCOCC1` next?
100% (inactive)

---

Assay: growth inhibitors of H69AR lung tumor, primary screen, human, duplicate replicates (AID 580);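 note: 100% = mean luminescence of untreated wells and 0% = no signal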
Conditions: H69AR lung tumor cells viability, ATP luminescence, 72 h; at 10 µM; stronger effect = lower value
ATTRIBUTE_MEASURED: viability (%)
Provide the reading as a plain figure in %.

Please review the entries below; each comes with its answer.
COMPOUND	viability, %
COc1ccc(OC)c(C2=NOC(C(=O)Nc3cccnc3)C2)c1 (centres undefined)	88.9
O=C(c1cc2cc(Cl)cc(Cl)c2oc1=O)N1CCOCC1	88.4
CC1CN(Cc2nc3c(c(=O)[nH]c(=O)n3C)n2CC(N)=O)CC(C)O1 (centres undefined)	102

Which viability value belongs to `COc1ccc(CN(CC(=O)NCc2ccco2)C(=O)CCC(=O)Nc2nccs2)cc1` ?
101

Can you handle `CCCCOC(=O)CNc1nnc(SCC(=O)OCC)[nH]c1=O` next?
98.6

Can you handle CC1(C)Cc2cccc(OCC(O)CN3CCN(c4ccccn4)CC3)c2O1 (centres undefined) next?
70.3

Can you handle O=C1N(c2ccccc2)C2CS(=O)(=O)CC2N1c1ccc(Br)cc1 (centres undefined) next?
101

Can you handle `CCCN(S(=O)(=O)c1ccc(OCC)cc1)S(=O)(=O)c1cccs1` next?
89.8

Can you handle Cc1cccc(N2C(=O)CC(N3CCN(Cc4ccc(Cl)cc4)CC3)C2=O)c1 (centres undefined) next?
99.2

Can you handle `c1ccc2c(c1)CNc1ccccc1C2` next?
93.1

Can you handle `O=C(CSc1nnc(-c2ccco2)c(-c2ccco2)n1)Nc1ccccc1` next?
77.6

Can you handle `CCOc1ccccc1CNC(=O)CCN1C(=O)COc2ccccc21` next?
92.9

Can you handle `COc1ccccc1C(=O)N1CCN(C(=O)c2ccncc2)CC1` next?
103

Can you handle `S=C(c1cccs1)N1CCCC1` next?
100

Can you handle `Cc1onc(-c2c(Cl)cccc2Cl)c1C(=O)N1CCc2ccccc21` next?
61.6

Can you handle `COc1ccccc1-c1noc(-c2cccnc2)n1` next?
92.3

Can you handle `O=C(CSc1nnc(-c2ccccc2Cl)n1Cc1ccco1)Nc1ccc2c(c1)OCCO2` next?
77.7

Can you handle COc1ccccc1NC(=O)CSc1nnc(-c2ccncc2)n1CC1CCCO1 (centres undefined) next?
96.7

Can you handle CCC(=O)c1ccc(OCC(O)CN2CCN(S(=O)(=O)N3CCCCC3)CC2)cc1 (centres undefined) next?
110

Can you handle `CCOC(=O)c1c(NC(=O)c2cccs2)sc(C)c1C` next?
86.2

Can you handle `N#Cc1c2n(c(=S)n(-c3ccccn3)c1=O)CCCCC2` next?
86

Can you handle `CCc1nc2scc(-c3ccccc3)c2c(=O)n1N` next?
88.4

Can you handle `O=c1c2nnn(Cc3ccccc3)c2ncn1-c1ccccc1` next?
108

Can you handle `CCOC(=O)CNC(=O)CSc1ncnc2c1cnn2Cc1ccccc1` next?
100

---

Target: Receptor tyrosine-protein kinase erbB-2 (Homo sapiens) (UniProt P04626)
Assay: reducers of endogenous Her2 protein level, primary screen, SKBR3 breast tumor cells, AlphaScreen, ATP viability (AID 461);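 for Her2 level: lower value means less Her2 protein in the cells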;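 for viability: percent of carrier control wells set as 100% viability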
Conditions: 18-24 h, at 10 µM, stronger effect = lower value
Active and inactive are the calls of the source.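 Rule for the calls: active = Her2 level under about 52% in both replicate screens, with viability over 70% of control (limit read from the data); inconclusive = Her2 under the limit in one screen only, or viability under 70%; inactive = Her2 level above the set limit.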
The compounds listed here are annotated with their Her2 level.

Please review the entries below; each comes with its answer.
COMPOUND	TARGET_UNDER_TEST	Her2 level
N#C/C(C(=O)N1CCOCC1)=C1/SC(Cc2ccccc2)C(=O)N1c1ccccc1 (stereo not drawn)	Receptor tyrosine-protein kinase erbB-2 (Homo sapiens) (UniProt P04626)	90.5% (inactive)
N#CCCCN1C(=O)C(O)(CC(=O)c2ccc3c(c2)OCCO3)c2ccccc21 (stereo not drawn)	Receptor tyrosine-protein kinase erbB-2 (Homo sapiens) (UniProt P04626)	93.5% (inactive)
Cc1nc(SCCC(=O)O)c2ccccc2n1	Receptor tyrosine-protein kinase erbB-2 (Homo sapiens) (UniProt P04626)	108% (inactive)
O=C(Nc1ccc2c(c1)OCCO2)C1CCCN1S(=O)(=O)c1cccc2cccnc12 (stereo not drawn)	Receptor tyrosine-protein kinase erbB-2 (Homo sapiens) (UniProt P04626)	100% (inactive)
Cc1ccccc1CS(=O)(=O)CCC(=O)N1CCN(c2ccc(N3CCOCC3)nn2)CC1	Receptor tyrosine-protein kinase erbB-2 (Homo sapiens) (UniProt P04626)	81% (inactive)

Which Her2 level value belongs to `CCC(=O)Nc1ccc(NC(=O)c2cccc(OC)c2)nc1` ?
92.5% (inactive)

Can you handle `COc1ccc2c(c1)CCc1c(C(=O)N3CCCc4ccccc43)noc1-2` next?
87% (inactive)

Can you handle `Cc1cccc(Nc2nc(N)nc(CN3CCC(C(N)=O)CC3)n2)c1C` next?
89% (inactive)

Can you handle `O=C(CCn1c(=S)[nH]c2cc3c(cc2c1=O)OCO3)N1CCN(C2CCCCC2)CC1` next?
82.5% (inactive)

Can you handle `O=C(CNC(=O)c1ccccc1C(=O)O)c1ccccc1` next?
79.5% (inactive)
